ASSAY_OVERVIEW: in vitro
CONDITION_NOTES: mouse, plasma
Description: Half life in mouse plasma at 2 uM by LC/MS/MS analysis
REPORTED_PROPERTY: half-life at 2 µM (h)
Give just the number in h; leave the unit off.

stdin: Give the reported value of half-life at 2 µM for this record: "CC(=O)N[C@@H](C)C(=O)N[C@@H](CCCNC(=N)N)C(=O)N[C@@H](CC(=O)O)C(=O)N[C@@H](CS)C(=O)N1CCC[C@H]1C(=O)N[C@@H](CC(C)C)C(=O)N[C@H](C(=O)N[C@@H](CC(N)=O)C(=O)N1CCC[C@H]1C(=O)N[C@@H](CC(C)C)C(=O)N[C@@H](CS)C(=O)N[C@@H](CC(C)C)C(=O)N[C@@H](Cc1cnc[nH]1)C(=O)N1CCC[C@H]1C(=O)NCC(=O)N[C@@H](Cc1c[nH]c2ccccc12)C(=O)N[C@H](C(=O)N[C@@H](CS)C(=O)O)[C@@H](C)O)C(C)C"
stdout: 3.6

###

ASSAY_OVERVIEW: in vitro
CONDITION_NOTES: human, plasma
Description: Half life in human plasma at 2 uM by LC/MS/MS analysis
REPORTED_PROPERTY: half-life at 2 µM
Answers without a unit are incomplete; give the number and then its unit.

stdin: Give the reported value of half-life at 2 µM for this record: "CC(=O)N[C@@H](C)C(=O)N[C@@H](CCCNC(=N)N)C(=O)N[C@@H](CC(=O)O)C(=O)N[C@@H](CS)C(=O)N1CCC[C@H]1C(=O)N[C@@H](CC(C)C)C(=O)N[C@H](C(=O)N[C@@H](CC(N)=O)C(=O)N1CCC[C@H]1C(=O)N[C@@H](CC(C)C)C(=O)N[C@@H](CS)C(=O)N[C@@H](CC(C)C)C(=O)N[C@@H](Cc1cnc[nH]1)C(=O)N1CCC[C@H]1C(=O)NCC(=O)N[C@@H](Cc1c[nH]c2ccccc12)C(=O)N[C@H](C(=O)N[C@@H](CS)C(=O)O)[C@@H](C)O)C(C)C"
stdout: 3.7 h

###

ASSAY_OVERVIEW: in vitro
CONDITION_NOTES: human, plasma
Description: Unbound fraction in human plasma at 2 uM incubated for 2 hrs by LC/MS/MS analysis
REPORTED_PROPERTY: fraction unbound at 2 h, 2 µM
Output: the number by itself.

stdin: Give the reported value of fraction unbound at 2 h, 2 µM for this record: "CC(=O)N[C@@H](C)C(=O)N[C@@H](CCCNC(=N)N)C(=O)N[C@@H](CC(=O)O)C(=O)N[C@@H](CS)C(=O)N1CCC[C@H]1C(=O)N[C@@H](CC(C)C)C(=O)N[C@H](C(=O)N[C@@H](CC(N)=O)C(=O)N1CCC[C@H]1C(=O)N[C@@H](CC(C)C)C(=O)N[C@@H](CS)C(=O)N[C@@H](CC(C)C)C(=O)N[C@@H](Cc1cnc[nH]1)C(=O)N1CCC[C@H]1C(=O)NCC(=O)N[C@@H](Cc1c[nH]c2ccccc12)C(=O)N[C@H](C(=O)N[C@@H](CS)C(=O)O)[C@@H](C)O)C(C)C"
stdout: 0.646

The reported numbers originate from ChEMBL document CHEMBL4602699.
